Target: HER2 (A775_G776insYVMA) expressing Ba/F3 stable cell line (Homo sapiens, UniProt P04626, DUP772-775, cells depend on it)
Sequence (P04626 with tags, fused parts or gaps DUP772-775): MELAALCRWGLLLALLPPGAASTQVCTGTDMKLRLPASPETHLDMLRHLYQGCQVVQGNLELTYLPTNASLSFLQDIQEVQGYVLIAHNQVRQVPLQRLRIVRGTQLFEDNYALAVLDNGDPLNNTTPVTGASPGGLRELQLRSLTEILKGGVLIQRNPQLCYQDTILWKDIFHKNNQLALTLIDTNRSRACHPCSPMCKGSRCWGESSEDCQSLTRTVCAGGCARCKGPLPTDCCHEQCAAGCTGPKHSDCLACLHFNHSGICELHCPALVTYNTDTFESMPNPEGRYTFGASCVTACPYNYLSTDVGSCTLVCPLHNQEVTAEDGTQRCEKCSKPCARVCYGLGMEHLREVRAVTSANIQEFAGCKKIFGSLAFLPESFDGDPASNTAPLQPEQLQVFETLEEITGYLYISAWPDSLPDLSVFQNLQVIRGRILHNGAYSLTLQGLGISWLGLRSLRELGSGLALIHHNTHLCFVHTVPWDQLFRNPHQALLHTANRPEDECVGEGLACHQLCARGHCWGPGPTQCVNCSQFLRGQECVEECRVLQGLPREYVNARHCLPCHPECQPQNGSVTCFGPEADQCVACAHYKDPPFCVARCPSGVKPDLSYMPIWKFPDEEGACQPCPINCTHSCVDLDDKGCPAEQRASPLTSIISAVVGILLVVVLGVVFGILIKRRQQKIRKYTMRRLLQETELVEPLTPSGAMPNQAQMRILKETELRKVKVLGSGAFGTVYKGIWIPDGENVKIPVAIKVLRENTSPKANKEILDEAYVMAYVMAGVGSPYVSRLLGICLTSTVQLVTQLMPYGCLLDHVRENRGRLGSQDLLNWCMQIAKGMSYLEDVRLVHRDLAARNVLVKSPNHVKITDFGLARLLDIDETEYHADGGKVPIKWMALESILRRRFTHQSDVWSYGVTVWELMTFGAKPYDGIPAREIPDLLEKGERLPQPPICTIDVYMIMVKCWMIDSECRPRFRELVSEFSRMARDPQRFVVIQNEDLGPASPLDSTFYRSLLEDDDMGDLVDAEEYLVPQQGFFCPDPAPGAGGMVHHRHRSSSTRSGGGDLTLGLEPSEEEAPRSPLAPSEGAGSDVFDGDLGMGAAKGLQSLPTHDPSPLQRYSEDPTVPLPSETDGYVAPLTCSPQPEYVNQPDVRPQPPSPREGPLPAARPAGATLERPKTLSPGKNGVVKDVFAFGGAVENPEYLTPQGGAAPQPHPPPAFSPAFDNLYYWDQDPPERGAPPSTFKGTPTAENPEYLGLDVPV
Assay: Cellular proliferation (Alamar Blue) assay, HER2 (A775_G776insYVMA) Ba/F3
Format: cell-based
Settings: HER2 (A775_G776insYVMA) Ba/F3 cells; 72 hr; Alamar Blue; read-out: YVMA IC50
Items are presented alongside their recorded log10 GI50.
Use the decimal logarithm of GI50 (µM).

Query :: Any idea what log10 GI50 was measured for C=CC(=O)Nc1ccc(F)c(Nc2nc(Nc3cnn(C)c3)ncc2-c2ccc(OCc3cccc(F)c3)c(Cl)c2)c1 [Compound 122] ?
Result :: -0.17

Query :: Any idea what log10 GI50 was measured for C=CC(=O)Nc1ccc(F)c(Nc2nc(Nc3cnn(CCN(C)C)c3)ncc2-c2ccc(Cl)c(Cl)c2)c1 [Compound 58] ?
Result :: -1.00

Query :: Any idea what log10 GI50 was measured for C=CC(=O)Nc1ccc(F)c(Nc2nc(Nc3cnn(C)c3)ncc2-c2cc(F)c(F)c(C(F)F)c2)c1 [Compound 141] ?
Result :: -0.78

Query :: Any idea what log10 GI50 was measured for C=CC(=O)Nc1ccc(F)c(Nc2nc(Nc3cnn(C)c3)ncc2-c2cnc(C(F)(F)F)c(F)c2)c1 [Compound 61] ?
Result :: -1.43

Query :: Any idea what log10 GI50 was measured for C=CC(=O)Nc1ccc(F)c(Nc2nc(Nc3cnn(C)c3)ncc2-c2cc(F)cc(OC(F)F)c2)c1 [Compound 168] ?
Result :: -0.24

Query :: Any idea what log10 GI50 was measured for [2H]c1ccc(NC(=O)C=C)cc1Nc1nc(Nc2cnn(C)c2)ncc1-c1cc(F)cc(OC)c1 [Compound 145] ?
Result :: -0.58

Query :: Any idea what log10 GI50 was measured for C=CC(=O)Nc1cccc(Nc2nc(Nc3cnn(C)c3)ncc2-c2cc(F)cc(Cl)c2)c1 [Compound 66] ?
Result :: -1.33

====

Items are presented alongside their recorded log10 GI50.
Biological target: EGFR (A767_dupASV) expressing Ba/F3 stable cell line (Homo sapiens, UniProt P00533, DUP767-769, cells depend on it)
Sequence (P00533 with tags, fused parts or gaps DUP767-769): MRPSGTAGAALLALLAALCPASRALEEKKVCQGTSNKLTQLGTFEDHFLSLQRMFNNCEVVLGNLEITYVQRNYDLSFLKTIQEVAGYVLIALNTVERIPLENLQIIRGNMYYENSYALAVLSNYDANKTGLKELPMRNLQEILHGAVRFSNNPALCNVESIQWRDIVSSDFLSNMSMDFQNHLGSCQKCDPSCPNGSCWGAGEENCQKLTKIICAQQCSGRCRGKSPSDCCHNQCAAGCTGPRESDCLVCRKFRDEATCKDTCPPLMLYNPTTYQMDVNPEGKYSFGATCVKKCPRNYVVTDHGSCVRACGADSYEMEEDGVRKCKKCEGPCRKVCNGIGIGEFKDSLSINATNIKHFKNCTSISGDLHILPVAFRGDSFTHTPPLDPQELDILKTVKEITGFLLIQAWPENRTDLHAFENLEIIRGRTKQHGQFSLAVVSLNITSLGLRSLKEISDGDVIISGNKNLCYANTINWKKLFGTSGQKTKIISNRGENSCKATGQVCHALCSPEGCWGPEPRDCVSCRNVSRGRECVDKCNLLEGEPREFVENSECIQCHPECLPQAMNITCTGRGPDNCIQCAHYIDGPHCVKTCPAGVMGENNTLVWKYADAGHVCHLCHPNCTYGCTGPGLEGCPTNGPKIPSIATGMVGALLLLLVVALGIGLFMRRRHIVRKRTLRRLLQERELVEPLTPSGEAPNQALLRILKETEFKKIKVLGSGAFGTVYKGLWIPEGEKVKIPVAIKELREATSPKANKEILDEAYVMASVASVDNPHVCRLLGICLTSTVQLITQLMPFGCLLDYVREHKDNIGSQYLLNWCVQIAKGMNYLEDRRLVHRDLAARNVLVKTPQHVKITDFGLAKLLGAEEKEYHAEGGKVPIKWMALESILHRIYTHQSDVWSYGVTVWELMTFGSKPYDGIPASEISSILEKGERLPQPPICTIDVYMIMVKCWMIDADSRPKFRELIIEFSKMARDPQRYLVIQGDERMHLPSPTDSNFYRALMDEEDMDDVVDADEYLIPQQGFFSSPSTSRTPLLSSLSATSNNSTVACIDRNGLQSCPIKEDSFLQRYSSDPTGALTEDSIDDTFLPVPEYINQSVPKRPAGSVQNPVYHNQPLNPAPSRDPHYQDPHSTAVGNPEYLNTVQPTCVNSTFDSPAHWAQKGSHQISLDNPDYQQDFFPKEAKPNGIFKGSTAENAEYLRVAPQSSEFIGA
Assay: Cellular proliferation (Alamar Blue) assay, EGFR (A767_dupASV) Ba/F3
Assay type: cell-based
Details: 72 hr, read-out: A767 IC50
Use the decimal logarithm of GI50 (nM).

Use the examples below as a reference point.
{"Mol": "C=CC(=O)Nc1ccc(F)c(Nc2nc(Nc3cnn(C)c3)ncc2-c2cc(F)cc(F)c2)c1", "log10 GI50": 1.54}
{"Mol": "C=CC(=O)Nc1cccc(Nc2nc(Nc3cnn(C)c3)ncc2-c2cc(F)cc(OC)c2)c1", "log10 GI50": 2.49}

Query :: Any idea what log10 GI50 was measured for C=CC(=O)Nc1ccc(F)c(Nc2nc(Nc3cnn(C)c3)ncc2-c2ccc3c(c2)CCN3C)c1 ?
Result :: 2.98

Query :: Any idea what log10 GI50 was measured for C=CC(=O)Nc1cccc(Nc2nc(Nc3cnn(C)c3)ncc2-c2cc(F)cc(Cl)c2)c1 ?
Result :: 1.41

Query :: Any idea what log10 GI50 was measured for C=CC(=O)Nc1ccc(F)c(Nc2nc(Nc3cnn(C)c3)ncc2-c2ccc(N(C)CCN(C)C)c(F)c2)c1 ?
Result :: 3.35

Query :: Any idea what log10 GI50 was measured for CN(C)C/C=C/C(=O)Nc1cccc(Nc2nc(Nc3cnn(C)c3)ncc2-c2cc(F)cc(F)c2)c1 ?
Result :: 2.04

Query :: Any idea what log10 GI50 was measured for C=CC(=O)Nc1ccc(F)c(Nc2nc(Nc3cnn(C4COC4)c3)ncc2-c2ccc(F)c(Cl)c2)c1 ?
Result :: 2.08

Query :: Any idea what log10 GI50 was measured for C=CC(=O)Nc1ccc(F)c(Nc2nc(Nc3cnn(C)c3)ncc2-c2cc(F)ccc2Cl)c1 ?
Result :: 2.42

====

Target: EGFR(D770_N771insSVD) expressing Ba/F3 stable cell line (Homo sapiens, UniProt P00533, DUP768-770, cells depend on it)
Sequence (P00533 with tags, fused parts or gaps DUP768-770): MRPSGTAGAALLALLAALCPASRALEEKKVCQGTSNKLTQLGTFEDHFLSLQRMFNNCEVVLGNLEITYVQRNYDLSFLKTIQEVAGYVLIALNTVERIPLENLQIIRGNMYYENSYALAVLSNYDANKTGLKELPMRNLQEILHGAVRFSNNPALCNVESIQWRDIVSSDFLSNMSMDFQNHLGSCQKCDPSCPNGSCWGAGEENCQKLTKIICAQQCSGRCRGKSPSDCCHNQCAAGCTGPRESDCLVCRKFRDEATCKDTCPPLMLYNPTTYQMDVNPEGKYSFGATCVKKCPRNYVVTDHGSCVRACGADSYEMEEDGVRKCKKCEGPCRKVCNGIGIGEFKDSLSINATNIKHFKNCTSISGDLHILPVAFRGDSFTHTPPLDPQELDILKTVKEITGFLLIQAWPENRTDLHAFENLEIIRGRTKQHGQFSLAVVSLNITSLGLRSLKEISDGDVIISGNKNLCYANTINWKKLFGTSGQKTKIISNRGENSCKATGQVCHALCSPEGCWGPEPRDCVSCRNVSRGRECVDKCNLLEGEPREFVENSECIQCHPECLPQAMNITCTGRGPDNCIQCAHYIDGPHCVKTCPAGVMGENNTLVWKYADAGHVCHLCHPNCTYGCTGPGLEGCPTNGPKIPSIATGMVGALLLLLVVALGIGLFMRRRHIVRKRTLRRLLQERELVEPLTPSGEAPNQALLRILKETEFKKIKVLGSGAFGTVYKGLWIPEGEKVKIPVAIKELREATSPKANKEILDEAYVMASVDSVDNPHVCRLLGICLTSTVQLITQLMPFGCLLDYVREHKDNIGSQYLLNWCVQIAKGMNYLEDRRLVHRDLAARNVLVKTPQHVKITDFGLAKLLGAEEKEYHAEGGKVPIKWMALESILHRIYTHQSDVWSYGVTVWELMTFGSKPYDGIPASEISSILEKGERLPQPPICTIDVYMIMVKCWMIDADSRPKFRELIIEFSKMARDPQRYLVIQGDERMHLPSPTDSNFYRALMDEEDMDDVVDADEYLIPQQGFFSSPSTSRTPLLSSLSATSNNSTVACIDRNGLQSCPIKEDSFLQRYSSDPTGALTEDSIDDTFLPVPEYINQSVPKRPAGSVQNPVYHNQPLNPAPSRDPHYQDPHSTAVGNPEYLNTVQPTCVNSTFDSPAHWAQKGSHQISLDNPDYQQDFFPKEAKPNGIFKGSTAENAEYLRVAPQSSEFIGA
Test: Cellular proliferation (Alamar Blue) assay, EGFR(D770_N771insSVD) Ba/F3
Type: cell-based
Details: 72 hr, read-out: D770 IC50
// assign Condition met if GI50 falls strictly below 0.05 µM, else Condition not met (ties count as Condition not met)

{"Compound": "C=CC(=O)Nc1ccc(F)c(Nc2nc(Nc3cnn(C)c3)ncc2-c2cc(F)cc(OC(F)F)c2)c1 [Compound 168]", "Category": "Condition not met"}
{"Compound": "C=CC(=O)Nc1ccc(F)c(Nc2nc(Nc3cnn(CCO)c3)ncc2-c2ccc(Cl)c(Cl)c2)c1 [Compound 51]", "Category": "Condition met"}
{"Compound": "C=CC(=O)Nc1ccc(F)c(Nc2nc(Nc3cnn(C)c3)ncc2-c2cc(C(F)(F)F)ccc2F)c1 [Compound 24]", "Category": "Condition not met"}

Query :: Consider the compound C=CC(=O)Nc1ccc(F)c(Nc2nc(Nc3cnn(CCOC)c3)ncc2-c2ccc(Br)c(F)c2)c1 [Compound 95] . Is its GI50 strictly less than 0.05 µM?
Result :: Condition met

Query :: Consider the compound C=CC(=O)Nc1cc(Br)cc(Nc2nc(Nc3cnn(C)c3)ncc2-c2ccc(OC(F)F)c(F)c2)c1 [Compound 132] . Is its GI50 strictly less than 0.05 µM?
Result :: Condition met

====

Items are presented alongside their recorded GI50.
Biological target: HER2 (A775_G776insYVMA) expressing Ba/F3 stable cell line (Homo sapiens, UniProt P04626, DUP772-775, cells depend on it)
Experiment: Cellular proliferation (Alamar Blue) assay, HER2 (A775_G776insYVMA) Ba/F3
Type: cell-based
Conditions: HER2 (A775_G776insYVMA) Ba/F3 cells; 72 hr; Alamar Blue; read-out: YVMA IC50

Use the examples below as a reference point.
{"Compound": "C=CC(=O)Nc1ccc(F)c(Nc2nc(Nc3cnn(C)c3)ncc2-c2ccc(N3CCC3)c(F)c2)c1", "Parameter": "GI50", "Endpoint result": "171 nM"}
{"Compound": "C=CC(=O)Nc1ccc(F)c(Nc2nc(Nc3cnn(C)c3)ncc2-c2cc(F)c(C(F)(F)F)c(OC)c2)c1", "Parameter": "GI50", "Endpoint result": "1270 nM"}
{"Compound": "C=CC(=O)Nc1ccc(F)c(Nc2nc(Nc3cnn(C)c3)ncc2-c2ccc(C(F)(F)F)cc2F)c1", "Parameter": "GI50", "Endpoint result": "1030 nM"}
{"Compound": "C=CC(=O)Nc1ccc(F)c(Nc2nc(Nc3cn(C)nc3Cl)ncc2-c2ccc(OC)c(OC)c2)c1", "Parameter": "GI50", "Endpoint result": "5780 nM"}
{"Compound": "C=CC(=O)Nc1ccc(F)c(Nc2nc(Nc3cnn(C)c3)ncc2-c2cc(F)cc(Cl)c2)c1", "Parameter": "GI50", "Endpoint result": "84 nM"}
{"Compound": "C=CC(=O)Nc1ccc(F)c(Nc2nc(Nc3cnn(C)c3)ncc2-c2cc(F)c(Br)c(F)c2)c1", "Parameter": "GI50", "Endpoint result": "59 nM"}
{"Compound": "C=CC(=O)Nc1ccc(F)c(Nc2nc(Nc3cnn(C)c3)ncc2-c2cc(F)ccc2OC)c1", "Parameter": "GI50", "Endpoint result": "838 nM"}
{"Compound": "C=CC(=O)Nc1ccc(F)c(Nc2nc(Nc3cnn(C)c3)ncc2-c2ccc(C)c(F)c2)c1", "Parameter": "GI50", "Endpoint result": "114 nM"}

Query :: Any idea what GI50 was measured for C=CC(=O)Nc1ccc(F)c(Nc2nc(Nc3cnn(C)c3)ncc2-c2cc(OC)ccc2Cl)c1 ?
Result :: 644 nM

Query :: Any idea what GI50 was measured for C=CC(=O)Nc1ccc(F)c(Nc2nc(Nc3cnn(CCOC)c3)ncc2-c2ccc(Br)c(F)c2)c1 ?
Result :: 197 nM

Query :: Any idea what GI50 was measured for C=CC(=O)Nc1ccc(F)c(Nc2nc(Nc3cnn(C)c3)ncc2-c2ccc3c(c2)OCC3)c1 ?
Result :: 428 nM

Query :: Any idea what GI50 was measured for C=CC(=O)Nc1ccc(F)c(Nc2nc(Nc3cnn(C)c3)ncc2-c2cnc(F)c(F)c2)c1 ?
Result :: 21 nM

Query :: Any idea what GI50 was measured for [2H]C([2H])([2H])n1cc(Nc2ncc(-c3ccc(Br)c(F)c3)c(Nc3cc(NC(=O)C=C)ccc3F)n2)cn1 ?
Result :: 147 nM

Query :: Any idea what GI50 was measured for C=CC(=O)Nc1ccc(F)c(Nc2nc(Nc3cnn(C)c3)ncc2-c2ccc(Br)c(OC)c2)c1 ?
Result :: 453 nM

Query :: Any idea what GI50 was measured for C=CC(=O)Nc1ccc(F)c(Nc2nc(Nc3cnn(C)c3)ncc2-c2ccc(N3CCCC3)c(F)c2)c1 ?
Result :: 584 nM

Query :: Any idea what GI50 was measured for C=CC(=O)Nc1ccc(F)c(Nc2nc(Nc3cnn(C)c3)ncc2-c2ccc(F)c(Cl)c2)c1 ?
Result :: 187 nM

Query :: Any idea what GI50 was measured for C=CC(=O)Nc1ccc(F)c(Nc2nc(Nc3cnn(C)c3)ncc2-c2cc(F)cc(N3CCC3)c2)c1 ?
Result :: > 10000 nM

Query :: Any idea what GI50 was measured for C=CC(=O)Nc1ccc(F)c(Nc2nc(Nc3cnn(C)c3)ncc2-c2ccc(CN(C)C)c(F)c2)c1 ?
Result :: 952 nM

Query :: Any idea what GI50 was measured for C=CC(=O)Nc1ccc(F)c(Nc2nc(Nc3cnn(C)c3)ncc2-c2ccc(OC)c(Cl)c2)c1 ?
Result :: 432 nM

Query :: Any idea what GI50 was measured for C=CC(=O)Nc1ccc(F)c(Nc2nc(Nc3cnn(C)c3)ncc2-c2ccc(N(C)C)c(F)c2)c1 ?
Result :: 271 nM

Query :: Any idea what GI50 was measured for C=CC(=O)Nc1cccc(Nc2nc(Nc3cnn(C)c3)ncc2-c2cc(F)c(Br)c(F)c2)c1 ?
Result :: 40 nM

Query :: Any idea what GI50 was measured for C=CC(=O)Nc1ccc(F)c(Nc2nc(Nc3cnn(C)c3)ncc2-c2cc(F)c(Cl)c(F)c2)c1 ?
Result :: 40 nM

Query :: Any idea what GI50 was measured for C=CC(=O)Nc1ccc(F)c(Nc2nc(Nc3cnn(C)c3)ncc2-c2cc(F)cc(C(F)F)c2)c1 ?
Result :: 124 nM

Query :: Any idea what GI50 was measured for C=CC(=O)Nc1ccc(F)c(Nc2nc(Nc3cnn(C)c3)ncc2-c2ccc(Br)c(C(F)F)c2)c1 ?
Result :: 352 nM

Query :: Any idea what GI50 was measured for C=CC(=O)Nc1ccc(F)c(Nc2nc(Nc3cnn(C)c3)ncc2-c2ccc(OC)c(C(F)(F)F)c2)c1 ?
Result :: 890 nM
